From: ChEMBL document CHEMBL6078657

- protocol_text: Antiproliferative activity against human MCF-10A cells assessed as cell viability measured after 48 hrs incubation by MTT assay
- Assay type: toxicity, cell-based
Measured IC50 at 48 h, listed per entry.
For clarity, give the value followed by its unit.

smiles_string: COc1ccc(/C=C2\SC(=O)N(CC(=O)NCCNC(=O)O[C@H]3CC[C@]4(C)[C@H]5CC[C@]6(C)[C@@H]([C@H](C)/C=C/[C@H](C)C(C)C)CC[C@H]6[C@@]56C=C[C@]4(C3)OO6)C2=O)c(OC)c1OC
measured_metric: IC50 at 48 h
assay_result: 30.1 µM
//
smiles_string: CC(C)[C@@H](C)/C=C/[C@@H](C)[C@H]1CC[C@@H]2[C@]1(C)CC[C@H]1[C@]23C=C[C@]2(C[C@@H](OC(=O)NCCNC(=O)CN4C(=O)S/C(=C\c5ccc(Cl)cc5)C4=O)CC[C@]12C)OO3
measured_metric: IC50 at 48 h
assay_result: 28.9 µM
//
smiles_string: CC(C)[C@@H](C)/C=C/[C@@H](C)[C@H]1CC[C@@H]2[C@]1(C)CC[C@H]1[C@]23C=C[C@]2(C[C@@H](OC(=O)NCCNC(=O)CN4C(=O)S/C(=C\c5ccccc5)C4=O)CC[C@]12C)OO3
measured_metric: IC50 at 48 h
assay_result: 41.6 µM
//
smiles_string: CC(C)[C@@H](C)/C=C/[C@@H](C)[C@H]1CC[C@@H]2[C@]1(C)CC[C@H]1[C@]23C=C[C@]2(C[C@@H](OC(=O)NCCNC(=O)CN4C(=O)S/C(=C\c5cccc6ccccc56)C4=O)CC[C@]12C)OO3
measured_metric: IC50 at 48 h
assay_result: 32.3 µM
//
smiles_string: COc1ccc(/C=C2\SC(=O)N(CC(=O)NCCNC(=O)O[C@H]3CC[C@]4(C)[C@H]5CC[C@]6(C)[C@@H]([C@H](C)/C=C/[C@H](C)C(C)C)CC[C@H]6[C@@]56C=C[C@]4(C3)OO6)C2=O)cc1OC
measured_metric: IC50 at 48 h
assay_result: 20.8 µM
//
smiles_string: CC(C)[C@@H](C)/C=C/[C@@H](C)[C@H]1CC[C@@H]2[C@]1(C)CC[C@H]1[C@]23C=C[C@]2(C[C@@H](OC(=O)NCCNC(=O)CN4C(=O)S/C(=C\c5ccc(Br)cc5)C4=O)CC[C@]12C)OO3
measured_metric: IC50 at 48 h
assay_result: 45.3 µM
//
smiles_string: CC(C)[C@@H](C)/C=C/[C@@H](C)[C@H]1CC[C@@H]2[C@]1(C)CC[C@H]1[C@]23C=C[C@]2(C[C@@H](OC(=O)NCCNC(=O)CN4C(=O)S/C(=C\C5CC5)C4=O)CC[C@]12C)OO3
measured_metric: IC50 at 48 h
assay_result: 35.9 µM

Next, consider the following compound.
// IC50 at 48 h lookup, key: Cc1ccc(/C=C2\SC(=O)N(CC(=O)NCCNC(=O)O[C@H]3CC[C@]4(C)[C@H]5CC[C@]6(C)[C@@H]([C@H](C)/C=C/[C@H](C)C(C)C)CC[C@H]6[C@@]56C=C[C@]4(C3)OO6)C2=O)cc1
24.1 µM
